experiment: Tmax in NOD-scid IL-2Rgamma-null mouse model engrafted with Plasmodium falciparum 3D7 infected human erythrocytes at 5 mg/kg administered via oral gavage measured over 23 hrs post first dose by LC-MS/MS method; assay type: ADME, organism-based; conditions: in vivo
RECORDED_METRIC: Tmax

> print(dat)
                      smiles.representation  recorded.metric    result
1  Fc1ccc(Nc2cc3[nH]c(-c4ccc(F)c(C(F)(F)F)c4)nc3cn2)nc1             Tmax  4 to 6 h

# ---- query compound ----
Return value of Tmax for input FC1(F)CCC(c2nc3cnc(Nc4ccc(C(F)(F)F)cn4)cc3[nH]2)CC1 , no commentary.
0.5 to 2 h
